B1: library; a variant is named by its letters at N, in order (parent)
chain: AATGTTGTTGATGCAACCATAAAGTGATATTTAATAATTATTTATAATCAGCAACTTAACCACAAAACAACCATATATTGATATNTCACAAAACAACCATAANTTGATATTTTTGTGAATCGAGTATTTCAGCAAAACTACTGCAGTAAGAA

Variants of: B1
ASSAY DETAILS: relative integration efficiency (T-RL orientation) vs wild-type transposon end (log2 (normalized fold change)); transposon end mutated: left end; higher = more efficient transposition
RECORDED CONDITIONS: with VchCAST RNA-guided transposition machinery (E. coli BL21(DE3) host, lacZ target)
Classification field. Basis: relative integration efficiency (log2). Definitions: Low (below -0.4), Medium (-0.4 to below -0.09), High (-0.09 or more)

Exercise: Hi, small favor: classify CG G122T A123C G124T T125G by its relative integration efficiency (log2) when you get a moment.
Key: High

Exercise: Sort CG T48A C49A A50T C52T A53G C55G T56C T57G A59G C60T C61A A66C A67C into one of the categories.
Key: Low

Exercise: State the class of the variant shown: CC A101T A102T T104A
Key: High

Exercise: Class (by measured relative integration efficiency (log2)) for TA A23G G24T A33T T76A T78A T84A C87A A96C T112G T113C
Key: High

Exercise: Please let me know in which category the item CG T45G A46C belongs.
Key: Medium

Exercise: Please let me know in which category the item CG T35G A36C A37C T38G belongs.
Key: High

Exercise: State the class of the variant shown: TA G24A T30A T76A T78A T84A C87A A96C T110A T113A
Key: High

Exercise: Could you place CG C17T in its proper category? Many thanks.
Key: High

Exercise: Hi, small favor: classify CG T41A by its relative integration efficiency (log2) when you get a moment.
Key: High

Exercise: Where would CG G7C T8A T9A G10C land among the classes by reported relative integration efficiency (log2)?
Key: Low

Exercise: Which band does CG G51C C52G fall in?
Key: Medium

Exercise: Where would CG T86A C87G A88T C89G land among the classes by reported relative integration efficiency (log2)?
Key: Medium

Exercise: The entry to classify is CG A64T A65T ; which class holds it?
Key: High

Exercise: Could you tell me which band CG T111A T112A T113A T114A belongs to?
Key: Low

Exercise: For the record TA A23G G24T A33T A70C T76A T86G T104G T113A , report the class its relative integration efficiency (log2) corresponds to.
Key: High

Exercise: Lab note: which band did CT A101C A102C T104G land in?
Key: Low

Exercise: Please let me know in which category the item CG C97G belongs.
Key: Low

Exercise: Each variant maps to one class by relative integration efficiency (log2). Which class for CG T41G ?
Key: Medium

Exercise: Bin? CG A34C
Key: High

Exercise: // return the class label for TG T76A A77G C87T
Key: Medium

Exercise: Field: class (relative integration efficiency (log2)) — entry: CG A16G
Key: Medium

Exercise: Bin this entry: CG T82A
Key: Medium

Exercise: Given CG T105G G106T A107C T108G , name the class its relative integration efficiency (log2) places it in.
Key: Low

Exercise: Entry TA A16C G24T T30A A70C T76A T84A C87A T104A T110A T113A belongs to which category?
Key: High

Exercise: Which category does the recorded relative integration efficiency (log2) put CG T6G G7T in?
Key: Low

Exercise: Which bin, given its relative integration efficiency (log2), does CG A22C T76G A102C occupy?
Key: Low

Exercise: For this variant, which bin applies? CG T41G T42G T43G A44C
Key: Medium

Exercise: Which of the defined bands does the recorded relative integration efficiency (log2) of TA A22T G24T T31C A33C A70C T76A T86G A96C T112G T113C sit within?
Key: Medium

Exercise: Please let me know in which category the item CG T32G A33C A34C T35G belongs.
Key: Medium

Exercise: For CG A69C , which relative integration efficiency (log2) bin applies?
Key: Medium

Exercise: Which bin, given its relative integration efficiency (log2), does CG T120C occupy?
Key: Medium

Exercise: Note: place this variant into its band. Item: CG A65C A66C A67C C68A
Key: Low

Exercise: Form: Item = CG T38C ; Class = ?
Key: High

Exercise: Using the reported relative integration efficiency (log2), which band applies to CG T42G T43G A44C T45G ?
Key: Medium

Exercise: Category of CG T12A G13A T30A T31C T32A :
Key: Low

Exercise: Lab log: CG A46G A47G C49G A50T G51C C52T A53C A54G A58C C60G — assign relative integration efficiency (log2) category
Key: Low

Exercise: Exam item: assign CG T48G C49A to the correct category.
Key: Low

Exercise: Input CG T104G ; output its category
Key: High

Exercise: Which relative integration efficiency (log2) band matches CG T8G T9G G10T A11C ?
Key: Low

Exercise: Tag the class for CG T48G
Key: High

Exercise: Bin this entry: CG T8C
Key: Low

Exercise: Determine which band this variant sits in: CG C55A
Key: High

Exercise: Please report the category associated with CG T41A T42A , nothing else.
Key: High

Exercise: Into which bin does this variant go? CG A40T
Key: High

Exercise: Kindly identify the class of CG T84C .
Key: Medium

Exercise: Hi, small favor: classify CG T39G A40C T41G T42G by its relative integration efficiency (log2) when you get a moment.
Key: High

Exercise: // bin(item) where item = CG A91C
Key: Medium

Exercise: Please classify: CG C17G
Key: Medium

Exercise: Band assignment needed for CG A73T T74A A75T T76A please.
Key: Low

Exercise: Which bin should I file TA A16C G24T T30A T76A T78A T84A C87A T104A T110A T113A under?
Key: High

Exercise: Please classify: CG C52A
Key: High

Exercise: For this variant, which bin applies? CG T42A T43A A44T T45A
Key: High

Exercise: Class label required: CG C68A
Key: Low

Exercise: // bin(item) where item = TA T76A T78A T84A C87A T104A T110A T113A
Key: High

Exercise: // bin(item) where item = CG A99C
Key: Low

Exercise: read the entry CG T35G A36C and state which class it falls under.
Key: Medium

Exercise: Any idea which band TA A16C G24T T30A A70C T76A T84A C87A T104G T113A is in?
Key: Medium

Exercise: Categorize the following entry: CG A102C
Key: Low

Exercise: Kindly state the category for this variant: TA A23G G24T A33T A70C T76A T86G T104A T110A T113A
Key: Low

Exercise: Which class does CC fall in?
Key: High

Exercise: GET /class?item= CG T32A A33T
Key: Medium

Exercise: State the class of the variant shown: CG T108A
Key: Medium

Exercise: Looking at CG C68G , which class would you pick?
Key: Low

Exercise: Which of the defined bands does the recorded relative integration efficiency (log2) of TG G24A T30A T76A T78G C87A sit within?
Key: High

Exercise: In plain terms, what class is CG G115C T116A ?
Key: High

Exercise: Which category fits this record: CG A77C T86G
Key: Medium

Exercise: Could you place CG G10C A11T T12A G13C in its proper category? Many thanks.
Key: Low

Exercise: Place this variant in its band: CG A34C T35G A36C A37C
Key: High

Exercise: Please let me know in which category the item CG T111G T112G T113G T114G belongs.
Key: Low

Exercise: Which class is correct for the following variant? CG G7A
Key: Medium

Exercise: Hey, which category is CG A88C C89A in, do you know?
Key: High

Exercise: Entry CG G80A belongs to which category?
Key: Low

Exercise: # bin lookup: classify CG T8A T9A G10C A11T by its relative integration efficiency (log2)
Key: Low

Exercise: Into which bin does this variant go? CG T104A T105A
Key: Low

Exercise: State the band of CG T105G G106T
Key: Low

Exercise: Pick a category. Item: CG T79A G80C
Key: Low

Exercise: Textbook exercise: identify the category of the variant given here, CG T79A , according to its measured value.
Key: Low

Exercise: Hey, which category is CG T5C in, do you know?
Key: Medium

Exercise: Quick check: band for CG C63A
Key: High

Exercise: Classify this variant: CG A95C A96C
Key: Medium

Exercise: For the record CG C97G C98G A99T T100A , report the class its relative integration efficiency (log2) corresponds to.
Key: Low

Exercise: Please classify: CG C97T
Key: Medium

Exercise: Which relative integration efficiency (log2) category applies to CG G115A here?
Key: Medium

Exercise: Quick check: band for CG A109T T110A T111A T112A
Key: Low

Exercise: Sort into band: CG A2C
Key: High

Exercise: Hi there! Could you help me figure out the category for CG T9G G10T please?
Key: High

Exercise: Bin? CG C18G
Key: High

Hey, just so you know, these numbers are from the supplement of paper PMC10201428.
